test_method_notes: Pharmacokinetics of regorafenib in plasma of freely moving rats with or without RT (HPLC-UV)
Format: in vivo, Sprague-Dawley rats
test_parameters: male, Sprague-Dawley, rat, plasma, po, 16 mg/kg, rat plasma; RT2 Gy × 1 f'x with regorafenib 16 mg/kg p.o. × 1 d (concurrent); read-out: t½
attribute_measured: half-life

[ask] Please report the recorded half-life for CNC(=O)c1cc(Oc2ccc(NC(=O)Nc3ccc(Cl)c(C(F)(F)F)c3)c(F)c2)ccn1 .
[reply] 6.82 h

====

test_method_notes: Organ distribution of regorafenib in rats with or without RT
Format: in vivo, Sprague-Dawley rats
test_parameters: Sprague-Dawley, rat, spleen, oral, 16 mg/kg, rat, 4 h after oral administration; RT2 Gy × 3 f'x with regorafenib 16 mg/kg × 3 d (concurrent); read-out: Concentration in spleen
attribute_measured: concentration at 4 h

[ask] So what does the record say about concentration at 4 h for CNC(=O)c1cc(Oc2ccc(NC(=O)Nc3ccc(Cl)c(C(F)(F)F)c3)c(F)c2)ccn1 ?
[reply] 80 ng/g

====

test_method_notes: Organ distribution of regorafenib in rats with or without RT
Format: in vivo, Sprague-Dawley rats
test_parameters: Sprague-Dawley, rat, kidney, oral, 16 mg/kg, rat, 4 h after oral administration; RT2 Gy × 3 f'x with regorafenib 16 mg/kg × 3 d (concurrent); read-out: Concentration in kidneys
attribute_measured: concentration at 4 h (ng/g)
Report the figure in ng/g without appending any unit label.

[ask] // lookup concentration at 4 h for CNC(=O)c1cc(Oc2ccc(NC(=O)Nc3ccc(Cl)c(C(F)(F)F)c3)c(F)c2)ccn1 [regorafenib, Regorafenib]
[reply] 130

====

test_method_notes: Pharmacokinetics of regorafenib in plasma of freely moving rats with or without RT (HPLC-UV)
Assay type: in vivo, Sprague-Dawley rats
test_parameters: male, Sprague-Dawley, rat, plasma, po, 16 mg/kg, rat plasma; RT9 Gy × 3 f'x followed by regorafenib 16 mg/kg p.o. × 3 d (sequential)
attribute_measured: MRT (h)
Record the value in h, omitting the unit from your answer.

[ask] Given CNC(=O)c1cc(Oc2ccc(NC(=O)Nc3ccc(Cl)c(C(F)(F)F)c3)c(F)c2)ccn1 , state its recorded MRT.
[reply] 14.3

====

test_method_notes: Pharmacokinetics of regorafenib in plasma of freely moving rats with or without RT (HPLC-UV)
Type: in vivo, Sprague-Dawley rats
test_parameters: male, Sprague-Dawley, rat, plasma, po, 16 mg/kg, rat plasma; 16 mg/kg p.o. × 3 d, no RT
attribute_measured: Tmax (h)
Number only, in h; omit the unit.

[ask] Fill in the blank: the reported Tmax of CNC(=O)c1cc(Oc2ccc(NC(=O)Nc3ccc(Cl)c(C(F)(F)F)c3)c(F)c2)ccn1 [regorafenib, Regorafenib] is ____.
[reply] 1.5

====

test_method_notes: Pharmacokinetics of regorafenib in plasma of freely moving rats with or without RT (HPLC-UV)
Assay type: in vivo, Sprague-Dawley rats
test_parameters: male, Sprague-Dawley, rat, plasma, po, 16 mg/kg, rat plasma; RT9 Gy × 1 f'x followed by regorafenib 16 mg/kg p.o. × 1 d (sequential)
attribute_measured: Tmax (h)
Respond numerically; units are h and should not be typed.

[ask] Fill blank: measured Tmax of the compound CNC(=O)c1cc(Oc2ccc(NC(=O)Nc3ccc(Cl)c(C(F)(F)F)c3)c(F)c2)ccn1 is ____.
[reply] 2.58
